This listing pairs compounds with measured DC50.
# Study system: EGFR L858R/T790M (H1975-clone #36, homozygous) (Homo sapiens, UniProt P00533, L858R/T790M)
# Construct: designed to specifically target WT EGFR but preserve the L858R/T790M copy; host or cells: H1975-clone #36
# Sequence (P00533 25-1210 T790M/L858R): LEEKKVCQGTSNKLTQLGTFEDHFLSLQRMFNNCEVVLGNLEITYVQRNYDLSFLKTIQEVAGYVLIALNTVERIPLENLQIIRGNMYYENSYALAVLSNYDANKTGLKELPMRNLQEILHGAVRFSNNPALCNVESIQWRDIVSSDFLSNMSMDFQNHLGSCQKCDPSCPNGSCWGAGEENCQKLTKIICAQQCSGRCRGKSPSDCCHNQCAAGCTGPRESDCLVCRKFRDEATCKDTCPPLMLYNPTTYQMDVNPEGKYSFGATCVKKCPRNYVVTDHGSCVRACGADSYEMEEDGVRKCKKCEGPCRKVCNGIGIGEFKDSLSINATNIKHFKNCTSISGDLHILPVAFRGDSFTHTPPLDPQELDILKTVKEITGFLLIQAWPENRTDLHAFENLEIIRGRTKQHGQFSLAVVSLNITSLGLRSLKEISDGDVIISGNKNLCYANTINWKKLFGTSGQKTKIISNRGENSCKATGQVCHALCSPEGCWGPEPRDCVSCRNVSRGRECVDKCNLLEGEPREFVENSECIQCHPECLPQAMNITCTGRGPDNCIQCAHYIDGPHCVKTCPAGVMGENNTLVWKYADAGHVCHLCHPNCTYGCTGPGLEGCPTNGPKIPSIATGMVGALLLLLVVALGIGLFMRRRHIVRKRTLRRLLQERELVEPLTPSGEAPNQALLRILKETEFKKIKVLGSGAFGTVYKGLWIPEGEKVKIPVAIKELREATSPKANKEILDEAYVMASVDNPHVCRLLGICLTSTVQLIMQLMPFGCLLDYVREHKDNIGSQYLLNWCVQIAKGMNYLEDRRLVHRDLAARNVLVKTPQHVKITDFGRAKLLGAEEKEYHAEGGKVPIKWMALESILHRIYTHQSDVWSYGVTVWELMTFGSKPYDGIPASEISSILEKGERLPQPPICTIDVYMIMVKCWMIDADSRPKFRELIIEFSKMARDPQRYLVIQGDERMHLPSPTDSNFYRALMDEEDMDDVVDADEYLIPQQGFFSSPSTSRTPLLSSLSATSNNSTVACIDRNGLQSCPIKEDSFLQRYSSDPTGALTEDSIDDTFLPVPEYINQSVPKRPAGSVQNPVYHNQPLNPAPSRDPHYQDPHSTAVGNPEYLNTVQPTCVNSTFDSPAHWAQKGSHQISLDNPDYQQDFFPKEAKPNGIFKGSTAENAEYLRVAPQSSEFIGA
# Protocol details: EGFR degradation HTRF assay, H1975-clone #36 cells
# Format: cell-based
# Condition parameters: H1975 #36, 16h treatment
The figure you give is taken to be in nM; do not add the unit.

Some compounds with known DC50 results, for comparison:
COc1cc(N2CCN(C3CN(C(=O)c4cnc(C(=O)Nc5ccc(C6CCC(=O)NC6=O)cc5)cn4)C3)CC2)ccc1Nc1ncc(Cl)c(Nc2ccccc2P(C)(C)=O)n1 (centres unmarked) [Example 116]
6.63
COc1cc(N2CCC(N3CCN(CCCOc4ccc(NC5CCC(=O)NC5=O)cc4)CC3)CC2)ccc1Nc1ncc(Cl)c(Nc2ccccc2NS(C)(=O)=O)n1 (centres unmarked) [Example 143]
5.43
COc1cc(N2CCC(N3CCN(CCCC4CN(c5ccc6c(c5)C(=O)N(C5CCC(=O)NC5=O)C6=O)C4)CC3)CC2)ccc1Nc1ncc(Cl)c(Nc2ccccc2P(C)(C)=O)n1 (centres unmarked) [Example 118]
24.7
COc1cc(N2CCN(CC3CCN(c4ccc(N5CCC(=O)NC5=O)cc4)CC3)CC2)c(C)cc1Nc1ncc(Br)c(Nc2ccc3nccnc3c2P(C)(C)=O)n1 [Example 95]
9030

Asked: Look up and report measured DC50 for this entry: CCc1cc(Nc2ncc(Br)c(Nc3ccc4nccnc4c3P(C)(C)=O)n2)c(OC)cc1N1CCC(N2CCN(C(=O)[C@@H]3CCN(c4cc(F)c(C5CCC(=O)NC5=O)c(F)c4)C3)CC2)CC1 (some centres unmarked) [Example 255]
Given back: 3.27

Asked: Indicate its recorded DC50; the compound in question is COc1cc(N2CCN(CC3CCN(c4ccc(N5CCC(=O)NC5=O)cc4)CC3)CC2)ccc1Nc1ncc(Cl)c(Nc2ccccc2P(C)(C)=O)n1 [Example 115]
Given back: 641

Asked: Output measured DC50 for this item: CCc1cc(Nc2ncc(Br)c(Nc3ccc4nccnc4c3P(C)(C)=O)n2)c(OC)cc1N1CCC(N2CCN(C(=O)CC3CN(c4ccc5c(c4)C(=O)N(C4CCC(=O)NC4=O)C5=O)C3)CC2)CC1 (centres unmarked) [Example 222]
Given back: 7.03

Asked: Output DC50 of CCc1cc(Nc2ncc(Br)c(Nc3ccc4nccnc4c3P(C)(C)=O)n2)c(OC)cc1N1CCC(N2CCN(C(=O)C3CN(c4ccc5c(c4)C(=O)N(C4CCC(=O)NC4=O)C5=O)C3)CC2)CC1 (centres unmarked) [Example 64]
Given back: 3.12

Asked: Provide measured DC50 value, entry: CCc1cc(Nc2ncc(Br)c(Nc3ccc4nccnc4c3P(C)(C)=O)n2)c(OC)cc1N1CCC(N2CCN(CCc3cccc4c3n(C)c(=O)n4C3CCC(=O)NC3=O)CC2)CC1 (centres unmarked) [Example 318]
Given back: 2.14

* * *

# Study system: EGFR L858R/T790M/C797S (BaF3-LTC cells) (Homo sapiens, UniProt P00533, C797S/L858R/T790M)
# Construct: expressed in transfected cells; host or cells: BaF3
# Sequence (P00533 25-1210 T790M/C797S/L858R): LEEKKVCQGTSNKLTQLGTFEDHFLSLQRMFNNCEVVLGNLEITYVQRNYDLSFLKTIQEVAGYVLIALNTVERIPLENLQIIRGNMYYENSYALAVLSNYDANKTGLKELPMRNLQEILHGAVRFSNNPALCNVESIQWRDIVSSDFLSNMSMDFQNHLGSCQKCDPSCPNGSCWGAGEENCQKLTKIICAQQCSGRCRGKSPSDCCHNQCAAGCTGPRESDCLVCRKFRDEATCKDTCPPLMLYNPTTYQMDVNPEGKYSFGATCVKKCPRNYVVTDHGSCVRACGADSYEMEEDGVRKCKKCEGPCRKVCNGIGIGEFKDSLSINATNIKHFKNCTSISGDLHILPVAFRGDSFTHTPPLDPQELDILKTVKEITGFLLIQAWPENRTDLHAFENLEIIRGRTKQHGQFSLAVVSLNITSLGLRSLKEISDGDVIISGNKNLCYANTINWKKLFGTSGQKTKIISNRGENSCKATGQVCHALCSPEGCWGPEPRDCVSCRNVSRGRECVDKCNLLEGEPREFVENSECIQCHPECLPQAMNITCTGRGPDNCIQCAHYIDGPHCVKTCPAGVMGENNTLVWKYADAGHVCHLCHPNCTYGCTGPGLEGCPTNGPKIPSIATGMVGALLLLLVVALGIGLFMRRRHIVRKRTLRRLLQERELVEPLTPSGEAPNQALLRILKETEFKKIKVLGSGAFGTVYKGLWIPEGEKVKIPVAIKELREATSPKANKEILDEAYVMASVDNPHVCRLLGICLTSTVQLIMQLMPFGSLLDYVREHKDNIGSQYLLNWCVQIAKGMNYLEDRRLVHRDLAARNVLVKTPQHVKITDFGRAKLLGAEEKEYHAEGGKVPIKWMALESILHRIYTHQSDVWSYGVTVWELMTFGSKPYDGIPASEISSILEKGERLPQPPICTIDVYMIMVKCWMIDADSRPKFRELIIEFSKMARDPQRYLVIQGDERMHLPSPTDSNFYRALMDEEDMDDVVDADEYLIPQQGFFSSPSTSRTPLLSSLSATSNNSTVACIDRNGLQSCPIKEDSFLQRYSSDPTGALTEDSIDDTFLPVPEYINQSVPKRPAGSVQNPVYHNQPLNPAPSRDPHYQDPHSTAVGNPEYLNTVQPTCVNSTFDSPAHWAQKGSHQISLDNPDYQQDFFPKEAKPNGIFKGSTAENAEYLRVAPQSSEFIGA
# Protocol details: EGFR degradation HTRF assay, BaF3-LTC cells
# Type: cell-based
# Condition parameters: BaF3-LTC cells; maximum percentage of inhibition (degradation); read-out: Dmax (%) BaF3-LTC
Measured parameter: Dmax (%)
Respond numerically; units are % and should not be typed.

Examples with answers:
CCOc1cc(N2CCC(N3CCN(CC4CCN(c5cc(F)cc6c5oc(=O)n6C5CCC(=O)NC5=O)CC4)CC3)CC2)c(CC)cc1Nc1ncc(Br)c(Nc2ccc3nc(CC)ccc3c2P(C)(C)=O)n1 (stereo not shown)
93.9
CCOc1cc(N2CCC(N3CCN(C[C@H]4CCN(c5cccc6c5oc(=O)n6C5CCC(=O)NC5=O)C4)CC3)CC2)c(CC)cc1Nc1ncc(Br)c(Nc2ccc3c(=O)n(CC)ncc3c2P(C)(C)=O)n1 (stereo partly shown)
92.3
CCc1ccc2c(P(C)(C)=O)c(Nc3nc(Nc4cc(CC)c(N5CCC(N6CCN(C(=O)Cc7c(C)ccc8c7C(C)(C)C(=O)N8C7CCC(=O)NC7=O)CC6)CC5)cc4OC)ncc3Br)ccc2n1 (stereo not shown)
84.2

Asked: Given the compound CCc1cnc2c(P(C)(C)=O)c(Nc3nc(Nc4cc(CC)c(N5CCC(N6CCN(C(=O)[C@@H]7CCN(c8cc(F)c([C@H]9CCC(=O)NC9=O)c(F)c8)C7)CC6)CC5)cc4OC)ncc3Br)ccc2n1 , write its reported Dmax.
Given back: 89.6

Asked: Could you please provide reported Dmax for CCOc1cc(N2CCC(N3CCN(CCc4c(F)ccc5c4oc(=O)n5C4CCC(=O)NC4=O)CC3)CC2)c(CC)cc1Nc1ncc(Br)c(Nc2ccc3nc(CC)ccc3c2P(C)(C)=O)n1 (stereo not shown) ? Thanks!
Given back: 83.9

Asked: Give Dmax for CCc1cc(Nc2ncc(Br)c(Nc3ccc4nc(NC5CC5)ccc4c3P(C)(C)=O)n2)c(OC)cc1N1CCC(N2CCN(CCc3ccc4c(c3)oc(=O)n4C3CCC(=O)NC3=O)CC2)CC1 (stereo not shown)
Given back: 91.7

Asked: Entry CCOc1cc(N2CCC(N3CCN(C(=O)[C@@H]4CCN(c5cc(F)c([C@H]6CCC(=O)NC6=O)c(F)c5)C4)CC3)CC2)c(CC)cc1Nc1ncc(Br)c(Nc2ccc3nc(C)ccc3c2P(C)(C)=O)n1 needs its Dmax filled in; supply it.
Given back: 96.4

* * *

# Study system: EGFR L858R/T790M/C797S (BaF3-LTC cells) (Homo sapiens, UniProt P00533, C797S/L858R/T790M)
# Construct: expressed in transfected cells; host or cells: BaF3
# Protocol details: EGFR degradation HTRF assay, BaF3-LTC cells
# Type: cell-based
# Condition parameters: BaF3-LTC cells; maximum percentage of inhibition (degradation); read-out: Dmax (%) BaF3-LTC
Please enter true where Dmax is greater than or equal to 90%, and false where it is lower.

Use the examples below as a reference point.
CCOc1cc(N2CCC(N3CCN(CCN(C)c4cccc5c4oc(=O)n5C4CCC(=O)NC4=O)CC3)CC2)c(CC)cc1Nc1ncc(Br)c(Nc2cc(F)c3nc(CC)ccc3c2P(C)(C)=O)n1 (stereo not shown) [Example 604]
false
CCOc1cc(N2CCC(N3CCN(CCc4c(F)ccc5c4C(C)(C)C(=O)N5C4CCC(=O)NC4=O)CC3)CC2)c(CC)cc1Nc1ncc(Br)c(Nc2ccc3nc(CC)ccc3c2P(C)(C)=O)n1 (stereo not shown) [Example 647]
true
COc1cc(N2CCC(N3CCN(C(=O)[C@@H]4CCN(c5cc(F)c([C@H]6CCC(=O)NC6=O)c(F)c5)C4)CC3)CC2)c(C)cc1Nc1ncc(Br)c(Nc2ccc3c(=O)n(C)ncc3c2P(C)(C)=O)n1 [Example 527]
true
CCc1cc(Nc2ncc(Br)c(Nc3ccc4nc(C)ccc4c3P(C)(C)=O)n2)c(OC2CC2)cc1N1CCC(N2CCN(CCCc3cc(F)cc4c3oc(=O)n4C3CCC(=O)NC3=O)CC2)CC1 (stereo not shown) [Example 607]
false
CCc1cc(Nc2ncc(Br)c(Nc3ccc4nc(C#N)ccc4c3P(C)(C)=O)n2)c(OC)cc1N1CCC(N2CCN(C(=O)[C@@H]3CCN(c4cc(F)c([C@H]5CCC(=O)NC5=O)c(F)c4)C3)CC2)CC1 [Example 674]
true

Asked: Determine whether this compound has Dmax no lower than 90%: CCOc1cc(N2CCC(N3CCN(CCc4cc5oc(=O)n(C6CCC(=O)NC6=O)c5cc4Cl)CC3)CC2)c(CC)cc1Nc1ncc(Br)c(Nc2ccc3nc(CC)ccc3c2P(C)(C)=O)n1 (stereo not shown) [Example 627]
Given back: true

Asked: Is reported Dmax greater than or equal to 90% here: CCc1cc(Nc2ncc(Br)c(Nc3ccc4nc(C)ccc4c3P(C)(C)=O)n2)c(OC)cc1N1CCC(N2CCN(C(=O)[C@@H]3CN(c4cc(F)c([C@H]5CCC(=O)NC5=O)c(F)c4)CC3(C)C)CC2)CC1 [Example 662]
Given back: true

Asked: Item CCOc1cc(N2CCC(N3CCN(CC4CN(c5cc(F)c(C6CCC(=O)NC6=O)c(F)c5)C4)CC3)CC2)c(CC)cc1Nc1ncc(Br)c(Nc2ccc3c(=O)n(C)ncc3c2P(C)(C)=O)n1 (stereo not shown) [Example 535] with Dmax of 90% or above?
Given back: true

Asked: Please check the record CCc1ccc2c(P(C)(C)=O)c(Nc3nc(Nc4cc(CC)c(N5CCC(N6CCN(CCc7cccc8c7n(CC)c(=O)n8C7CCC(=O)NC7=O)CC6)CC5)cc4OC)ncc3Br)ccc2n1 (stereo not shown) [Example 453] and state if its Dmax is at or above 90%.
Given back: true

The reported measurements were obtained from patent US20230265116A1.
